- Test system: Human immunodeficiency virus type 1 reverse transcriptase (Human immunodeficiency virus 1), Q72547 [Y181I]
- TEST DETAILS: Antiviral activity against HIV1 reverse transcriptase Y181I mutant
ENDPOINT LABEL: ID50

> print(dat)
                                   compound  endpoint.label  test.result
1  Cc1c(Cc2c(Cl)cccc2Cl)nc(S/C=C/c2ccc(F)cc2)[nH]c1=O            ID50      > 20 µM
2  CCOc1ccc(CSc2nc(Cc3c(F)cccc3F)c(C)c(=O)[nH]2)cc1            ID50      > 20 µM
3  Cc1c(C(C)c2c(F)cccc2F)nc(SC/C=C/c2ccc(C#N)cc2)[nH]c1=O (centres undefined)            ID50      > 20 µM
4  COc1ccc(/C=C/Sc2nc(Cc3c(Cl)cccc3Cl)c(C)c(=O)[nH]2)cc1            ID50      > 20 µM
5  COc1ccc(/C=C/CSc2nc(C(C)c3c(Cl)cccc3Cl)c(C)c(=O)[nH]2)cc1 (centres undefined)            ID50      > 20 µM
6  Cc1c(Cc2ccc(C#N)cc2)nc(SCc2ccc(C#N)cc2)[nH]c1=O            ID50      > 20 µM
7  CCc1c(C(C)c2c(F)cccc2F)nc(SC/C=C/c2ccc(C#N)cc2)[nH]c1=O (centres undefined)            ID50      > 20 µM
8  Cc1c(C(C)c2c(F)cccc2F)nc(SC/C=C/c2ccc([N+](=O)[O-])cc2)[nH]c1=O (centres undefined)            ID50      > 20 µM
9  CCc1c(Cc2c(Cl)cccc2Cl)nc(SC/C=C/c2ccc(C#N)cc2)[nH]c1=O            ID50      > 20 µM

Where do these numbers come from? They come from ChEMBL document CHEMBL1138362.
